Tested on: 786-0
EXPERIMENT: NCI tumour cell line growth inhibition, 48 h
The source made the active and inactive calls. Cut-off read from the data, not from the text of the source: active = GI50 up to about 1.1 µM and inactive = higher.
I would appreciate it if you answered using one of these outcomes: Y = active, N = inactive

// query Which result was noted for this compound in the test: `CN(C)c1ccc(/C=C/C(=O)c2ccccc2)cc1Br`
// result N

// query And CC1CC(Nc2ccc(Br)cc2)N(C(=O)c2ccc(Br)cc2)O1 (centres undefined) ?
// result N

// query And `N#CC1(C#N)[C@@H]2CCC=C(Sc3ccccc3)[C@@H]21` ?
// result N

// query And C=C1C2C[C@@H]3O[C@H]4C[C@H]5O[C@@]6(C[C@@H]7O[C@]8(C[C@H](C)[C@@H]9O[C@@H]%10CC(C=O)O[C@@H]%10C[C@@H]9O8)C[C@H](C)[C@@H]7O6)C[C@H]5O[C@H]4[C@H](C)[C@H]3OC(=O)C[C@H]3CC[C@@H]4OC5[C@H]6O[C@]7(CC[C@H]8CC(=C)[C@H](CC[C@@H](C[C@H]1C)O2)O8)CC6O[C@@H]5[C@@H](O7)[C@H]4O3 (some centres undefined) ?
// result Y

---

Kindly state GI50 for each of the entries shown.
Test system: UACC-257
EXPERIMENT: NCI tumour cell line growth inhibition, 48 h
Calls of active or inactive are those of the source. No stated cut-off is given here; in the data, active = GI50 up to about 1.1 µM and inactive = higher.

// query Given the entry Cc1ccc(Cl)c(NC(=O)C(=O)C(C(=O)c2ccncc2)C2OC(=O)c3ccccc32)c1 (stereo not drawn) , report its measured GI50.
// result > 100 µM (inactive)

// query And Nc1ncnc2c1ncn2C1(CO)OC(CO)C(O)C1O (stereo not drawn) ?
// result > 100 µM (inactive)

// query And `O=c1c2cc(-c3ccccc3)cnc2sn1-c1ccc([N+](=O)[O-])cc1` ?
// result > 100 µM (inactive)

// query And CC1(C)CNC(=O)C2(/C=N/C(C)(C)CNC(=O)C3(/C=N/1)CCCO3)CCCO2 (stereo not drawn) ?
// result > 10 µM (inactive)

// query And `CC1(C)C=Cc2c(cc(O)c3c(=O)c4cc(Cl)ccc4[nH]c23)O1` ?
// result 2.87 µM (inactive)

// query And CC(=O)Nc1ccc(C(=O)NN2C(=O)CSC2c2ccc([N+](=O)[O-])cc2)cc1 (stereo not drawn) ?
// result > 100 µM (inactive)

// query And `CN(C)CCNC(=O)c1cc([N+](=O)[O-])ccn1` ?
// result 16.3 µM (inactive)

// query And Cc1ccc(NC(=O)CC2Sc3ccccc3NC2=O)c(C)c1 (stereo not drawn) ?
// result 2.59 µM (inactive)

---

System: SF-295
EXPERIMENT: NCI tumour cell line growth inhibition, 48 h
The source made the active and inactive calls. Cut-off read from the data, not from the text of the source: active = GI50 up to about 1.1 µM and inactive = higher.
Kindly state GI50 for each of the entries shown.

// query Given the entry Cc1ccc(C)c(NC(=O)C(Cc2c[nH]c3ccccc23)NC(=O)OCc2ccccc2)c1 (stereo unspecified) , report its measured GI50.
// result 25.8 µM (inactive)

// query And `COc1cc(O)c2c(c1)O[C@@H]1OCC[C@H]21` ?
// result > 100 µM (inactive)

// query And O/N=C(\c1nc2ccc(Cl)cc2nc1O)C(O)c1ccc(Cl)cc1Cl (stereo unspecified) ?
// result > 100 µM (inactive)

// query And O=C(Nc1nc2ccc([N+](=O)[O-])cc2s1)C(=O)C(C1OC(=O)c2ccccc21)[N+](=O)[O-] (stereo unspecified) ?
// result 91.2 µM (inactive)

// query And COc1ccc(-c2cc(C(O)C3CCCCN3)c3ccccc3n2)cc1 (stereo unspecified) ?
// result 14.7 µM (inactive)

// query And `CC1(C)CCc2c(cc3c(c2O)CCC(C)(C)O3)O1` ?
// result 96.8 µM (inactive)
